This collection of values is drawn from paper PMC4336329.

target: human ether-à-go-go-related gene (hERG) potassium channel (human); assay: primary screen, population patch clamp on CHO cells stably expressing hERG; higher = less effect of the substance;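 further: peak tail current of the secondary pulse compared with the same well before compound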
Sequence (Q12809 whole entry, looked up): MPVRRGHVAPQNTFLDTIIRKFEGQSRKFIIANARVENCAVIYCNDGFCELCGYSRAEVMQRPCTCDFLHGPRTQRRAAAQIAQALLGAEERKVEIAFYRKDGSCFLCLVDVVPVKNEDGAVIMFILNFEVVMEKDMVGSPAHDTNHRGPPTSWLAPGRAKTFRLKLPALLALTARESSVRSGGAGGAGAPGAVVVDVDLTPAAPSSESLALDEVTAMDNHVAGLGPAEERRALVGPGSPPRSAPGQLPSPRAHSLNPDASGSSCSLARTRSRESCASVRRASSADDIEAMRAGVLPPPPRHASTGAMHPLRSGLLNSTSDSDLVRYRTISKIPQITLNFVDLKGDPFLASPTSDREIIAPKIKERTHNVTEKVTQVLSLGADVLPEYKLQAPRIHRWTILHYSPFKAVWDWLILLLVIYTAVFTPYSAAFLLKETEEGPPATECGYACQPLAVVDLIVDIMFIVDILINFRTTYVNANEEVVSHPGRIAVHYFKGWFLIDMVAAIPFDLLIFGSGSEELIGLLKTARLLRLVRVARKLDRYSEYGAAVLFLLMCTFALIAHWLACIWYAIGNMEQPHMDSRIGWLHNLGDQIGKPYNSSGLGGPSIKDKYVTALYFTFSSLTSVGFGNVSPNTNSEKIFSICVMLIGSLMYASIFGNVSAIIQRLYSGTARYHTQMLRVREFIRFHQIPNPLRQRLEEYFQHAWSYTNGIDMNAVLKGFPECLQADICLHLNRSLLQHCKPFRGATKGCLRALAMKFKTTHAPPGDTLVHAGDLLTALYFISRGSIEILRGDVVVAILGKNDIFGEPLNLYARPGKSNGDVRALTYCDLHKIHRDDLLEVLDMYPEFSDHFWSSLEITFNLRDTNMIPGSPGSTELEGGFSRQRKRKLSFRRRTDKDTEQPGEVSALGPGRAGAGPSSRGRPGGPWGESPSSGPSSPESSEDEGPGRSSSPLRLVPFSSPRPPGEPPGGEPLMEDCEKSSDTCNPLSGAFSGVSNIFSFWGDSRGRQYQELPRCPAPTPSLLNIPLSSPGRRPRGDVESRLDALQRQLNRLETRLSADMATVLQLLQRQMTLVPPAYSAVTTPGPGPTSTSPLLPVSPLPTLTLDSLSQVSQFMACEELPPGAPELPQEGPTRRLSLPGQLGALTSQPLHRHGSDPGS
Out of some 310,000 compounds screened, about 14,000 (4.5%) showed an effect of 50% or more. The effect is printed as a negative number. Many of the other results were omitted from the sample, so strong results are more common in it than they were.
Listed next: entries and their corresponding hERG current change (%, negative = inhibition) at 10uM.
Give your result in % as a bare value.

compound Cc1ccccc1N1CCN(C2CCCN(C(=O)CN3CCCC3=O)C2)CC1 (centres unmarked) , hERG current change (%, negative = inhibition) at 10uM observed: 5.78

compound Cc1ccc(-n2ncc3c2CC(C)(C)CC3NC(=O)CCN2CCCO2)cc1 (centres unmarked) , hERG current change (%, negative = inhibition) at 10uM observed: -37.7

compound Cc1ccc(S(=O)(=O)N2CCN(C(=O)COC(=O)CSc3cc(C)ccc3C)CC2)c(C)c1 , hERG current change (%, negative = inhibition) at 10uM observed: -6.13

compound Cc1ccc(-n2ncc3c2CC(C)(C)CC3NC(=O)CCc2c(C)noc2C)cc1 (centres unmarked) , hERG current change (%, negative = inhibition) at 10uM observed: -32.3

compound Cc1ccc(-n2ncc3c2CC(C)(C)CC3NC(=O)CCN2CCCCC2=O)cc1 (centres unmarked) , hERG current change (%, negative = inhibition) at 10uM observed: 3.16

compound COC(=O)c1ccc(N2CCOCC2)c(NC(=O)c2cccs2)c1 , hERG current change (%, negative = inhibition) at 10uM observed: -5.27

compound OCC1(CC2CCCCO2)CCN(C/C=C/c2ccccc2)CC1 (centres unmarked) , hERG current change (%, negative = inhibition) at 10uM observed: -46

compound CC1(C)CC(=O)c2c(nc3ccccc3c2N)C1 , hERG current change (%, negative = inhibition) at 10uM observed: -28.8

compound C#Cc1ccc([C@H]2C=C(C(=O)O)O[C@@H](OCc3ccc(CO)cc3)C2)cc1 , hERG current change (%, negative = inhibition) at 10uM observed: 9.26

compound C/C=C(\C)CN1CCCC(CO)(Cc2ccccc2)C1 (centres unmarked) , hERG current change (%, negative = inhibition) at 10uM observed: 10.4

compound Cc1ccc(-n2ncc3c2CC(C)(C)CC3NC(=O)CCCN2CCCC2=O)cc1 (centres unmarked) , hERG current change (%, negative = inhibition) at 10uM observed: -1.21

compound COc1ccc(-c2[nH]ncc2CN(C)Cc2cccnc2)c(F)c1 , hERG current change (%, negative = inhibition) at 10uM observed: -1.66

----------
target: human ether-à-go-go-related gene (hERG) potassium channel (human); assay: primary screen, population patch clamp on CHO cells stably expressing hERG; higher = less effect of the substance;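 further: peak tail current of the secondary pulse compared with the same well before compound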
Among all 310,000 compounds or so, about 14,000 (4.5%) showed an effect of 50% or more. The effect is printed as a negative number. Many of the other results were omitted from the sample, so strong results are more common in it than they were.
Label Criterion met when hERG current change (%, negative = inhibition) at 10uM is at or above -20%; anything below gets Criterion not met.

Consider the following illustrative entries.
>  <COMPOUND>
Cc1ccc(-c2noc(CSc3nnc(-c4ccncc4)n3-c3ccc(F)cc3)n2)cc1

>  <CLASS_LABEL>
Criterion met

$$$$
>  <COMPOUND>
Nc1cncc(C(=O)O)c1 [26671297]

>  <CLASS_LABEL>
Criterion met

$$$$
>  <COMPOUND>
CCOC(=O)c1ccc(-n2ccnc2)c(NC(=O)c2ccc(C(C)(C)C)cc2)c1

>  <CLASS_LABEL>
Criterion not met

$$$$
>  <COMPOUND>
COc1ccc(C)cc1S(=O)(=O)N1CCN(S(=O)(=O)c2cc(C)ccc2OC)CC1

>  <CLASS_LABEL>
Criterion met

$$$$
>  <COMPOUND>
Cl.NS(=O)(=O)c1ccc(CCNCC#Cc2ccccc2)cc1

>  <CLASS_LABEL>
Criterion not met

$$$$
>  <COMPOUND>
CCOc1ccc(CNCCc2ccc3c(c2)OCO3)cc1

>  <CLASS_LABEL>
Criterion not met

$$$$

We now examine a further compound.
Exercise: Can O=C(O)C(=O)O.O=[N+]([O-])c1cc2c(cc1CNCCc1ccc3c(c1)OCO3)OCO2 be said to have hERG current change (%, negative = inhibition) at 10uM at or above -20%?
Solution: Criterion not met
